Each entry below carries its recorded TGI.
- Tested on: T-47D
- measurement-protocol: cells
- Type: cell-based, human
- Design: unit not given here
Could you keep your reply to the number by itself?

A selection of reference data follows.
compound: C[C@]12CC(=O)[C@H]3[C@@H](CCC4=CC(=O)NCC[C@@]43C)[C@@H]1CC[C@@H]2OC(=O)CCOc1ccc(N(CCCl)CCCl)cc1 [Compound 11]
TGI: 59
//
compound: C[C@]12CC[C@@H]3c4ccc(OC(=O)CCOc5ccc(N(CCCl)CCCl)cc5)cc4CC[C@H]3[C@@H]1CCC(=O)N2 [Compound 6]
TGI: 30
//
compound: C[C@]12CC[C@H]3[C@@H](CCC4=CC(=O)NCC[C@@]43C)[C@@H]1CC[C@@H]2OC(=O)CCOc1ccc(N(CCCl)CCCl)cc1 [Compound 3]
TGI: 25
//
compound: C[C@]12CC[C@H](OC(=O)Cc3ccc(N(CCCl)CCCl)cc3)C[C@@H]1CC[C@@H]1[C@@H]2CC[C@@]2(C)NC(=O)CC[C@@H]12 [ASE, reference compound]
TGI: 47
//
compound: C[C@]12CC[C@H](OC(=O)CCOc3ccc(N(CCCl)CCCl)cc3)CC1=CC(=O)N[C@@H]1[C@@H]2CC[C@]2(C)C(=O)CC[C@@H]12 [Compound 18]
TGI: 32

// switching to the query compound
Ask: # query: TGI of entry C[C@]12CC(=O)N[C@H]3[C@@H](CCC4=CC(=O)NCC[C@@]43C)[C@@H]1CC[C@@H]2OC(=O)CCOc1ccc(N(CCCl)CCCl)cc1 [Compound 16]
Result: 30

====

- Test system: SCOV-3 human ovarian cancer
- recorded-conditions: in vivo
Recorded TI % at Day-35 values for a group of compounds are listed next.
# number only, unit % dropped from output

Sample answers from the record:
smiles-text: C[C@]12CC[C@@H]3c4ccc(OC(=O)CCOc5ccc(N(CCCl)CCCl)cc5)cc4CC[C@H]3[C@@H]1CCC(=O)N2
reading-unit: %
TI % at Day-35: 56
//
smiles-text: C[C@]12CC(=O)N[C@H]3[C@@H](CCC4=CC(=O)NCC[C@@]43C)[C@@H]1CC[C@@H]2OC(=O)CCOc1ccc(N(CCCl)CCCl)cc1
reading-unit: %
TI % at Day-35: 55

// next entry
Ask: Recorded TI % at Day-35 for C[C@]12CC(=O)[C@H]3[C@@H](CCC4=CC(=O)NCC[C@@]43C)[C@@H]1CC[C@@H]2OC(=O)CCOc1ccc(N(CCCl)CCCl)cc1 , please?
Result: 73

====

Collected LD10 values appear next to each entry.
- System: C57Bl/6 mice
- recorded-conditions: female, C57Bl/6, mouse, in vivo, ip
Please make sure the unit comes right after the number.

See these solved cases before continuing.
compound: C[C@]12CC[C@H](OC(=O)Cc3ccc(N(CCCl)CCCl)cc3)C[C@@H]1CC[C@@H]1[C@@H]2CC[C@@]2(C)NC(=O)CC[C@@H]12 [ASE, reference compound]
LD10: 30 mg/kg
//
compound: C[C@]12CC[C@H](OC(=O)CCOc3ccc(N(CCCl)CCCl)cc3)CC1=CC(=O)N[C@@H]1[C@@H]2CC[C@]2(C)C(=O)CC[C@@H]12
LD10: 85 mg/kg

Shifting focus to the compound that follows.
Ask: Query: LD10; subject: C[C@]12CC(=O)[C@H]3[C@@H](CCC4=CC(=O)NCC[C@@]43C)[C@@H]1CC[C@@H]2OC(=O)CCOc1ccc(N(CCCl)CCCl)cc1
Result: 100 mg/kg
